tested_target: BRD3 (His-Brd3(20-477)) (Homo sapiens (Human))
Sequence (Q15059 20-477): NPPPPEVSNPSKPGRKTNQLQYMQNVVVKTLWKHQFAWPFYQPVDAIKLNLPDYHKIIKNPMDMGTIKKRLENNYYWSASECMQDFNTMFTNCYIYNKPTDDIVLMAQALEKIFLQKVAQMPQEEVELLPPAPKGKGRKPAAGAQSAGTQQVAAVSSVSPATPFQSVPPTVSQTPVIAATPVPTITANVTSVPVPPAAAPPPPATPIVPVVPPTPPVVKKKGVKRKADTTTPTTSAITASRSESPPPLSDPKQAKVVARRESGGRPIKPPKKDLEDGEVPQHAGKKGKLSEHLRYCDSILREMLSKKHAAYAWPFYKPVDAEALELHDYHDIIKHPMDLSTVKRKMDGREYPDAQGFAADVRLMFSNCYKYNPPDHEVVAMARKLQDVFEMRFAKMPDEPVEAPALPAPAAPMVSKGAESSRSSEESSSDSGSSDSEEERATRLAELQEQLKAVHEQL
assay_endpoint: IC50 (µM)

1. COc1ccc(-c2nc3c(n2C(C)C)C(c2ccc(Cl)cc2)N(c2cc(C)c4onc(C)c4c2)C3=O)cn1 (stereo not shown)
2. Cc1cc(N2C(=O)c3nc(C)n(C(C)C)c3C2c2ccc(Cl)cc2)cc2c1nnn2C (racemic)
3. COC(=O)N1CCC(c2nc3c(n2C(C)C)C(c2ccc(Cl)cc2)N(c2cc(C)c4nnc(C)n4c2)C3=O)CC1 (stereo not shown)
Put the above compounds in order of rising IC50, beginning with the smallest. Would you mind listing the labels in the order requested? 2, 1, 3

I. Cc1nc2c([nH]1)C(c1ccc(Cl)cc1)N(c1cc(C)c3nnc(C(F)F)n3c1)C2=O (stereo not shown)
II. Cc1cc(N2C(=O)c3nc(C4CCOC4)n(C(C)C)c3C2c2ccc(Cl)cc2)cc2c1nnn2C (stereo not shown)
Which has the higher IC50, I or II ? Mark your answer with the label of the selected entry. I
(I: 0.042 µM, II: 0.018 µM)

---

// endpoint GI50 / system K-562 cells
assay_endpoint: GI50 (µM)

molecule | unit_label | measured_result
COc1ccc(-c2nc3c(n2C)C(=O)N(c2cc(C)c(=O)n(C)c2)[C@@H]3c2ccc(Cl)cc2)cn1 | µM | 0.17
COc1ncccc1-c1nc2c(n1C(C)C)[C@@H](c1ccc(Cl)cc1)N(c1cc(OC)c3nnn(C)c3c1)C2=O | µM | 0.0901
Cc1cc(N2C(=O)c3nc(C4=CCOC4)n(C(C)C)c3C2c2ccc(Cl)cc2)cn2c(CF)nnc12 (stereo not shown) | µM | 0.11
Cc1cc(N2C(=O)c3nc(C4=CCOCC4)[nH]c3C2c2ccc(Cl)cc2)nc2c1nnn2C (stereo not shown) | µM | 0.041
CCn1c(-c2ccnn2C)nc2c1C(=O)N(c1cc(C)c(=O)n(C)c1)C2c1ccc(Cl)cc1 (stereo not shown) | µM | 0.274
CCCn1c(-c2cc(OC)ncc2F)nc2c1C(=O)N(c1cc(C)c(=O)n(C)c1)C2c1ccc(Cl)cc1 (stereo not shown) | µM | 0.25
Cc1cc(N2C(=O)c3nc(C4CC4)n(C(C)C)c3[C@H]2c2ccc(Cl)cc2)cn2c(C)nnc12 | µM | 0.0418
Cc1cc(N2C(=O)c3nc(C4CC4)n(C(C)C)c3C2c2ccc(Cl)cc2)cn2c(C)nnc12 (racemic) | µM | 0.114
COc1ccc(-c2nc3c(n2C)C(=O)N(c2cc(C)c(=O)n(C)c2)C3c2ccc(Cl)cc2)cn1 (stereo not shown) | µM | 0.23
Cc1cc(N2C(=O)c3nc(C4=CCOCC4)n(C(C)C)c3C2c2ccc(Cl)cc2)nn2c(C(F)F)nnc12 (stereo not shown) | µM | 0.0752

1. Cc1cc(N2C(=O)c3nc(C4CC4)n(C(C)C)c3C2c2ccc(Cl)cc2)cn2c(C(F)F)nnc12 (stereo not shown)
2. COc1ccc(-c2nc3c(n2C)C(c2ccc(Cl)cc2)N(c2cc(OC)c4nnc(C)n4c2)C3=O)cn1 (stereo not shown)
3. Cc1cc(N2C(=O)c3nc(C4=CCOCC4)n(C(C)C)c3[C@H]2c2ccc(Cl)cc2)cc2c1nnn2C
4. Cc1cc(N2C(=O)c3nc(C4CCCC4)n(C(C)C)c3C2c2ccc(Cl)cc2)cn(C)c1=O (stereo not shown)
5. Cc1cc(N2C(=O)c3nc(C)n(C(C)C)c3[C@H]2c2ccc(Cl)cc2)cn2c(C(F)F)nnc12
Ascending sort, GI50. Would you mind listing the labels in the order requested? 3, 5, 1, 4, 2
(3: 0.0195 µM, 5: 0.0469 µM, 1: 0.0703 µM, 4: 0.349 µM, 2: 7.25 µM)

---

// endpoint GI50 / system K-562 cells;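 also: cellular ATP measured by luminescence after 4 days of exposure, 3-fold dilution series from 10 µM, DMSO vehicle-treated cells define 100%, cell-free medium wells −100%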
assay_endpoint: GI50 (nM)

Answered cases to consult:
compound | assay_endpoint | measured_result
Cc1cc(N2C(=O)c3nc(N4CCOCC4)n(C)c3C2c2ccc(Cl)cc2)cn(C)c1=O (stereo not shown) | GI50 | 1940
COc1ncccc1-c1nc2c([nH]1)[C@@H](c1ccc(Cl)cc1)N(c1cc(C)c3nnc(C(F)F)n3c1)C2=O | GI50 | 95
Cc1cc(N2C(=O)c3nc(C4CCN(C)CC4)n(C(C)C)c3C2c2ccc(Cl)cc2)cn2c(C)nnc12 (stereo not shown) | GI50 | 3630
COc1ccc(-c2nc3c([nH]2)C(c2ccc(Cl)cc2)N(c2cc(C)c4nnc(C(F)F)n4c2)C3=O)cn1 (stereo not shown) | GI50 | 202
CCN1CC=C(c2nc3c(n2C(C)C)C(c2ccc(Cl)cc2)N(c2cc(C)c4nnc(C)n4c2)C3=O)CC1 (stereo not shown) | GI50 | 1380
CC(=O)N1CC=C(c2nc3c(n2C(C)C)C(c2ccc(Cl)cc2)N(c2cc(C)c4nnc(C)n4c2)C3=O)CC1 (stereo not shown) | GI50 | 5540
COc1cc(N2C(=O)c3nc(C4CCOCC4)n(C(C)C)c3[C@H]2c2ccc(Cl)cc2)cc2c1nnn2C | GI50 | 132
Cc1cc(N2C(=O)c3nc(C4=CCOC4)n(C(C)C)c3[C@H]2c2ccc(Cl)cc2)cn2c(C)nnc12 | GI50 | 351

a. Cc1cc(N2C(=O)c3nc(C4CCOC4)n(C(C)C)c3[C@H]2c2ccc(Cl)cc2)cc2c1nnn2C (stereo partly shown)
b. Cc1cc(N2C(=O)c3nc(C)n(C(C)C)c3C2c2ccc(Cl)cc2)nn2c(C(F)F)nnc12 (stereo not shown)
c. Cc1cc(N2C(=O)c3nc(C4CCOCC4)n(C(C)C)c3[C@H]2c2ccc(Cl)cc2)cc2c1nnn2C
d. Cc1cc(N2C(=O)c3nc(C4CCOCC4)n(C(C)C)c3[C@H]2c2ccc(Cl)cc2)cn2c(C)nnc12
e. CCCn1c(-c2cncc(C#N)c2)nc2c1C(=O)N(c1cc(C)c(=O)n(C)c1)C2c1ccc(Cl)cc1 (stereo not shown)
# sort list by recorded GI50, greatest to least Would you mind listing the labels in the order requested? e, d, b, a, c

A. Cc1cc(N2C(=O)c3nc(C4=CCOCC4)n(C4COC4)c3C2c2ccc(Cl)cc2)cc2c1nnn2C (stereo not shown)
B. COc1ccc(-c2nc3c(n2C(C)C)C(c2ccc(Cl)cc2)N(c2cc(OC)c4nnc(C)n4c2)C3=O)cn1 (stereo not shown)
Which has the higher GI50, A or B ? Mark your answer with the label of the selected entry. B
(B: 2480 nM, A: 104 nM)

---

tested_target: BRD2 (His-Brd2(60-472)) (Homo sapiens (Human), UniProt P25440)
Sequence (P25440 60-472): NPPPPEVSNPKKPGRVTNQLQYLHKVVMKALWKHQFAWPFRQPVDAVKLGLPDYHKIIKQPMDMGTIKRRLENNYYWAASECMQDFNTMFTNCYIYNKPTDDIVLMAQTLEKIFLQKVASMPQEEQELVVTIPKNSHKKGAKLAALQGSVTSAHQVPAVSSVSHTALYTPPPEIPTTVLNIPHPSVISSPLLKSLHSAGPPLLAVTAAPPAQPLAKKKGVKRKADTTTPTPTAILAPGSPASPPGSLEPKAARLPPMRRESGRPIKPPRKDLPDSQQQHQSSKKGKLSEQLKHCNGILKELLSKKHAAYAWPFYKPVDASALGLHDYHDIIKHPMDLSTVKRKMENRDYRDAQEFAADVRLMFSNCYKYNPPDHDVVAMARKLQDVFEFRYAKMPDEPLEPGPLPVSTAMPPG
assay_endpoint: IC50 (nM)

compound | tested_target | unit_label | IC50
Cc1cc(N2C(=O)c3nc(C4CCOCC4)n(C(C)C)c3[C@H]2c2ccc(Cl)cc2)nn2c(C)nnc12 [Example 102] | BRD2 (His-Brd2(60-472)) (Homo sapiens (Human), UniProt P25440) | nM | 20
Cc1cc(N2C(=O)c3nc(C4=CCCN(C)C4)n(C(C)C)c3C2c2ccc(Cl)cc2)cn2c(C)nnc12 (centres unmarked) [Example 12] | BRD2 (His-Brd2(60-472)) (Homo sapiens (Human), UniProt P25440) | nM | 43
Cc1cc(N2C(=O)c3[nH]c(C4CC4)nc3[C@H]2c2ccc(Cl)cc2)cn(C)c1=O [Example 47] | BRD2 (His-Brd2(60-472)) (Homo sapiens (Human), UniProt P25440) | nM | 39
Cc1cc(N2C(=O)c3nc(C)n(C(C)C)c3C2c2ccc(Cl)cc2)nn2c(C(F)F)nnc12 (centres unmarked) [Example 150] | BRD2 (His-Brd2(60-472)) (Homo sapiens (Human), UniProt P25440) | nM | 94
Cc1cc(N2C(=O)c3nc(C4=CCN(C)CC4)[nH]c3C2c2ccc(Cl)cc2)cn(C)c1=O (centres unmarked) [Example 135] | BRD2 (His-Brd2(60-472)) (Homo sapiens (Human), UniProt P25440) | nM | 53

I. COc1ncc(-c2nc3c(n2C(C)C)C(c2ccc(Cl)cc2)N(c2cc(C)c4onc(C)c4c2)C3=O)c(OC)n1 (centres unmarked) [Example 34]
II. COc1ncc(-c2nc3c(n2C(C)C)C(c2ccc(Cl)cc2)N(c2cc(C)c4nnc(C(F)F)n4c2)C3=O)c(OC)n1 (centres unmarked) [Example 143]
Returns the identifier with the smallest measured IC50 among I and II . Mark your answer with the label of the selected entry. II
(II: 34 nM, I: 98.2 nM)

---

// endpoint pIC50 / system BRD3 (His-Brd3(20-477)) (Homo sapiens (Human), UniProt Q15059)
pIC50: −log10 of the molar value.
assay_endpoint: pIC50

compound | measured_result
COc1ccc(-c2nc3c([nH]2)[C@@H](c2ccc(Cl)cc2)N(c2cc(C)c(=O)n(C)c2)C3=O)cn1 | 7.42
Cc1cc(N2C(=O)c3nc(C4=CCNCC4)n(C(C)C)c3C2c2ccc(Cl)cc2)cn2c(C)nnc12 (centres unmarked) | 7.38
Cc1cc(N2C(=O)c3nc(C4=CCOCC4)n(C(C)C)c3C2c2ccc(Cl)cc2)cn2c(CF)nnc12 (centres unmarked) | 7.37
Cc1cc(N2C(=O)c3nc(C)n(C(C)C)c3C2c2ccc(Cl)cc2)cn2c(C)nnc12 (centres unmarked) | 7.42
COc1ncccc1-c1nc2c(n1C(C)C)C(c1ccc(Cl)cc1)N(c1cc(C)c3nnn(C)c3c1)C2=O (racemic) | 7.41
